Reference source: the supplement of paper PMC10567573

Quick reference for protein stability index among some variants
B1: TRAF3IP2 (parent)
chain: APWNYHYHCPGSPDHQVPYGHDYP

variants of: B1; assay: protein stability index of a GFP-peptide fusion (GPS, HEK-293T) (PSI 1-6); higher = more stable; details: c terminus: a fixed tail appended;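 note: lentivirally expressed fusions sorted by FACS into six bins by GFP to DsRed ratio, PSI derived from sequencing read proportions per bin multiplied by bin number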
measurement name: protein stability index

INSERT INTO assay_data (var, measurement_name, meas_value) VALUES
  ('V17F', 'protein stability index', 1.73),
  ('S12C', 'protein stability index', 2.75),
  ('P18C', 'protein stability index', 2.97),
  ('H6M', 'protein stability index', 2.54),
  ('P13D', 'protein stability index', 2.4),
  ('P2I', 'protein stability index', 1.58),
  ('H15T', 'protein stability index', 1.91),
  ('Y5K', 'protein stability index', 3.14),
  ('P10I', 'protein stability index', 1.66),
  ('G11E', 'protein stability index', 2.06),
  ('P10S', 'protein stability index', 2.08),
  ('H15N', 'protein stability index', 2.48),
  ('Y5H', 'protein stability index', 2.63),
  ('Y19S', 'protein stability index', 2.44),
  ('H21N', 'protein stability index', 2.39),
  ('D14A', 'protein stability index', 1.93),
  ('P24M', 'protein stability index', 1.66),
  ('P13N', 'protein stability index', 1.83),
  ('P10A', 'protein stability index', 1.69),
  ('G11H', 'protein stability index', 2.11),
  ('Q16I', 'protein stability index', 2.58),
  ('D22K', 'protein stability index', 2.73),
  ('P18S', 'protein stability index', 1.67),
  ('Y5W', 'protein stability index', 2.91),
  ('Q16F', 'protein stability index', 2.19),
  ('P10E', 'protein stability index', 2.27),
  ('H21G', 'protein stability index', 1.91),
  ('Q16V', 'protein stability index', 2.09),
  ('W3Q', 'protein stability index', 3.54),
  ('Y23G', 'protein stability index', 2.92),
  ('P13A', 'protein stability index', 3.02),
  ('D14Y', 'protein stability index', 1.53),
  ('H15F', 'protein stability index', 1.65),
  ('H6I', 'protein stability index', 2.42),
  ('A1R', 'protein stability index', 2.1),
  ('S12L', 'protein stability index', 2.47),
  ('H15V', 'protein stability index', 2.31),
  ('H15K', 'protein stability index', 2.65),
  ('N4P', 'protein stability index', 2.59),
  ('H21W', 'protein stability index', 2.69),
  ('P13F', 'protein stability index', 2.78),
  ('W3H', 'protein stability index', 3.51),
  ('H15A', 'protein stability index', 2.1),
  ('A1L', 'protein stability index', 2.08),
  ('A1F', 'protein stability index', 2.12),
  ('D22S', 'protein stability index', 2.33);
